# IC50 at 72 h per entry
experiment: Cytotoxicity against MRC-5 cells, resazurin; assay type: cell-based; conditions: human, MRC-5 SV2 fibroblast cells, pure compounds

Recorded results for 2 molecules are shown here.
C[C@H]1[C@H](C)CC[C@@]2(C)[C@@H]1C1=CC[C@@H]3[C@@]4(C)CC[C@H](O)C(C)(C)[C@@H]4CC[C@@]3(C)[C@]1(C)C[C@@H]2O; > 64 µM
C[C@@H]1CCC23CC[C@]4(C)[C@@](C=CC5[C@@]6(C)CC[C@H](O)C(C)(C)C6CC[C@]54C)(OC2=O)C3[C@H]1C (stereo partly shown) [Cmpd. 6, 3-Hydroxy-13,28-epoxyurs-11-en-28-one]; > 64 µM

Enquiry: Recorded IC50 at 72 h of C[C@H]1[C@H](C)CC[C@]2(C(=O)O)CC[C@]3(C)C(=CC[C@@H]4[C@@]5(C)CC[C@H](O)C(C)(C)[C@@H]5CC[C@]43C)[C@H]12 [Cmpd. 3, 3β-hydroxy-urs-12-en-28-oic acid] , please.
Return: 11.4 µM

Enquiry: Any idea what IC50 at 72 h was measured for C[C@@H]1CC[C@]2(C)CC[C@]3(C)C(=C[C@@H](O)C4[C@@]5(C)CC[C@H](O)C(C)(C)C5CC[C@]43C)C2[C@H]1C (stereo partly drawn) [Cmpd. 5, 3β,11α-Dihydroxyurs-12-ene] ?
Return: > 64 µM
